# Target Entity: horse serum butyrylcholinesterase (BChE) (Equus caballus, UniProt P81908)
# Construct: native enzyme from horse serum, lyophilised, commercial (Sigma-Aldrich), untagged
# Sequence (P81908 whole entry): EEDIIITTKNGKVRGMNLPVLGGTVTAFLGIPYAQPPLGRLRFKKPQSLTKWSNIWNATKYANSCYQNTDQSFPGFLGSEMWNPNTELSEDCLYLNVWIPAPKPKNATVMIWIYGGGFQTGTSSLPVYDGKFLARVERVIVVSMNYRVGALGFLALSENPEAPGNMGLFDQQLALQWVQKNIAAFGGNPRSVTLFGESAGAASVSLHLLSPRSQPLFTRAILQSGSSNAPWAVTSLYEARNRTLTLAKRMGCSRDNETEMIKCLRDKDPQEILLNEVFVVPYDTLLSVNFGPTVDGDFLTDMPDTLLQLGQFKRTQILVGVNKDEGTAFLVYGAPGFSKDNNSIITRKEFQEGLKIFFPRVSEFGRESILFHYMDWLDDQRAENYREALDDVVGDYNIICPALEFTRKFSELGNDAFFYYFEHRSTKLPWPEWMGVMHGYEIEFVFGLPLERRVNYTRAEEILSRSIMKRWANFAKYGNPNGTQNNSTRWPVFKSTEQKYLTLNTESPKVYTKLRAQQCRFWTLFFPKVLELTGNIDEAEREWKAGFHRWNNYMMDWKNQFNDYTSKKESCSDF
# Run Description: Ellman assay, global fit to mixed inhibition model
# Type: biochemical
# Condition Summary: acetylthiocholine 0.04–1 mM, DTNB 0.3 mM, 0.1 M sodium phosphate pH 7.4, 25 °C; mixed; read-out: Ki ± SEM (μM) ^1

{"Entry Smiles": "OC[C@H]1O[C@@H](OCCn2cnc3ccccc32)[C@H](O)[C@@H](O)[C@@H]1O", "Ki [µM]": 16}

FYI, the data here is from paper PMC6695897.
